- experimental_conditions: human;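 also: human cholestatic liver injury, shown by histopathology or by peak ALT or AST elevation over alkaline phosphatase ratio below 2, value counts indexed literature reports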
measured_parameter: Hepatotoxicity (choleostasis)
One number for each entry.

Use the examples below as a reference point.
compound: CCCCC1=NC2(CCCC2)C(=O)N1Cc1ccc(-c2ccccc2-c2nnn[nH]2)cc1
Hepatotoxicity (choleostasis): 2
--
compound: CC12CCC(CC1=O)C2(C)C (centres undefined)
Hepatotoxicity (choleostasis): 0
--
compound: CCN1CCC[C@H]1CNC(=O)c1c(OC)ccc(Br)c1OC [REMOXIPRIDE]
Hepatotoxicity (choleostasis): 0
--
compound: CN(C)[C@@H]1C(O)=C(C(=O)NCN2CCCC2)C(=O)[C@@]2(O)C(O)=C3C(=O)c4c(O)cccc4[C@@](C)(O)[C@H]3C[C@@H]12
Hepatotoxicity (choleostasis): 0

The following compounds each have a reported value; give each one's Hepatotoxicity (choleostasis).
1. CO[C@@]1(NC(=O)Cc2cccs2)C(=O)N2C(C(=O)O)=C(COC(N)=O)CS[C@@H]21
2. CC(=O)S[C@@H]1CC2=CC(=O)CC[C@]2(C)[C@H]2CC[C@@]3(C)[C@@H](CC[C@@]34CCC(=O)O4)[C@H]12
3. CCCCC(C)(O)C/C=C/[C@H]1[C@H](O)CC(=O)[C@@H]1CCCCCCC(=O)OC (some centres undefined)

Output:
1. 1
2. 3
3. 0

State the recorded Hepatotoxicity (choleostasis) for every item in the following list.
1. Nc1nc(F)nc2c1ncn2[C@@H]1O[C@H](CO)[C@@H](O)[C@@H]1O
2. O=C1NCCN1CCN1CCC(c2cn(-c3ccc(F)cc3)c3ccc(Cl)cc23)CC1

Output:
1: 0; 2: 0
